Assay: Digestive versus sublingual absorption, plasmatic level 1 hour after administration
Type: in vivo, Rats
Details: rat, plasma, other: sublingual, Sublingual, 6 mg/kg, read-out: Plasmatic lutein concentration
measurement kind: concentration at 1 h (ng/mL)
Give the value, in units of ng/mL, as a plain number.

Ask: Look up concentration at 1 h: CC1=C[C@H](O)CC(C)(C)[C@H]1/C=C/C(C)=C/C=C/C(C)=C/C=C/C=C(C)/C=C/C=C(C)/C=C/C1=C(C)C[C@@H](O)CC1(C)C [lutein, Lutein]
Reply: 120

----------
Experiment: Digestive versus sublingual absorption, plasmatic level 1 hour after administration
Type: in vivo, Rats
Conditions: rat, plasma, oral, Digestive, 6 mg/kg, read-out: Plasmatic lutein concentration
measurement kind: concentration at 1 h (ng/mL)
Provide the reading as a plain figure in ng/mL.

Ask: Would you kindly share the measured concentration at 1 h for CC1=C[C@H](O)CC(C)(C)[C@H]1/C=C/C(C)=C/C=C/C(C)=C/C=C/C=C(C)/C=C/C=C(C)/C=C/C1=C(C)C[C@@H](O)CC1(C)C [lutein, Lutein] ?
Reply: 34

----------
Assay: Digestive versus sublingual absorption, plasmatic level 1 hour after administration
Type: in vivo, Rats
Settings: rat, plasma, other: sublingual, Sublingual, 12 mg/kg, read-out: Plasmatic lutein concentration
measurement kind: concentration at 1 h (ng/mL)
Provide only the numeric value, understood in ng/mL.

Ask: Quick check: concentration at 1 h of CC1=C[C@H](O)CC(C)(C)[C@H]1/C=C/C(C)=C/C=C/C(C)=C/C=C/C=C(C)/C=C/C=C(C)/C=C/C1=C(C)C[C@@H](O)CC1(C)C ?
Reply: 160

----------
Assay: Digestive versus sublingual absorption, plasmatic level 1 hour after administration
Format: in vivo, Rats
Conditions: rat, plasma, oral, Digestive, 12 mg/kg, read-out: Plasmatic lutein concentration
measurement kind: concentration at 1 h (ng/mL)
Give a bare numeral; the unit ng/mL is implied.

Ask: Entry CC1=C[C@H](O)CC(C)(C)[C@H]1/C=C/C(C)=C/C=C/C(C)=C/C=C/C=C(C)/C=C/C=C(C)/C=C/C1=C(C)C[C@@H](O)CC1(C)C [lutein, Lutein] : reported concentration at 1 h = ?
Reply: 32
